# Experimental target: TNF-α (Homo sapiens)
# Construct: purchased R&D 210-TA-020/CF
# Test protocol: TNF-α Induced HEK Blue Cellular Assay (secreted alkaline phosphatase expression, QUANTI-Blue)
# Type: cell-based
# Settings: HEK Blue TNFα reporter cells; TNF-α 100 μg/ml; 24 hrs at 37° C.; inhibition of secreted alkaline phosphatase; read-out: IC50 value
pIC50: −log10 of the molar value.
Each entry below lists one item and its recorded pIC50 value.

- Compound: "[2H]C([2H])([2H])N1C(=O)c2cccc(OC(F)F)c2[C@H]2C[C@@H]1c1nc3ccc(C#CCC4(O)COC4)cc3n12"
  pIC50: "6.00 to 7.00"
- Compound: "[2H]C([2H])([2H])N1C(=O)c2cccc(OC(F)F)c2[C@H]2C[C@@H]1c1nc3ccc(C#CCN4CC(F)(F)C4)cc3n12"
  pIC50: "> 7.00"
- Compound: "[2H]C([2H])([2H])N1C(=O)c2cccc(OC(F)F)c2[C@H]2C[C@@H]1c1nc3ccc(C#CC4CCCN(C(=O)C5CC5)C4)cc3n12 (stereo partly drawn)"
  pIC50: "> 7.00"
- Compound: "[2H]C([2H])([2H])N1C(=O)c2cccc(OC(F)F)c2[C@H]2C[C@@H]1c1nc3ccc(C#CC(O)C(F)(F)F)cc3n12 (single isomer, unassigned) [Example 200]"
  pIC50: "6.00 to 7.00"
- Compound: "[2H]C([2H])([2H])N1C(=O)c2cccc(OC(F)F)c2[C@H]2C[C@@H]1c1nc3ccc(C#Cc4cnn(CCN)c4)cc3n12"
  pIC50: "> 7.00"

get_value(item= [2H]C([2H])([2H])N1C(=O)c2cccc(OC(F)F)c2[C@H]2C[C@@H]1c1nc3ccc(C#CC(N)CC(C)(C)O)cc3n12 (single isomer, unassigned) [Example 216] , readout=pIC50) returns 4.52 to 5.00

---

# Experimental target: TNF-α (Homo sapiens, UniProt P01375)
# Construct: purchased R&D 210-TA-020/CF
# Sequence (P01375 77-233 limits assumed): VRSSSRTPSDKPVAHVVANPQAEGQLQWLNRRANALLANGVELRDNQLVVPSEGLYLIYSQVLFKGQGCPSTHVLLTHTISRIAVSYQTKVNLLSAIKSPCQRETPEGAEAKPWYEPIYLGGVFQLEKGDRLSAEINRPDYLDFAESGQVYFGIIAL
# Test protocol: TNF-α Induced HEK Blue Cellular Assay (secreted alkaline phosphatase expression, QUANTI-Blue)
# Format: cell-based
# Settings: HEK Blue TNFα reporter cells; TNF-α 100 μg/ml; 24 hrs at 37° C.; inhibition of secreted alkaline phosphatase; read-out: IC50 value
Observation type: IC50

// solved cases for IC50 follow
- Compound: "[2H]C([2H])([2H])N1C(=O)c2cccc(OC(F)F)c2[C@H]2C[C@@H]1c1nc3ccc(C#CC4(C)CN(C(=O)C5(C)CC5)C4)cc3n12"
  Observation type: "IC50"
  Result: "0.1 to 1 µM"
- Compound: "[2H]C([2H])([2H])N1C(=O)c2cccc(OC(F)F)c2[C@H]2C[C@@H]1c1nc3ccc(C#CC4CCCN(C)C4)cc3n12 (stereo partly drawn)"
  Observation type: "IC50"
  Result: "< 0.1 µM"

Please turn your attention to the following entry.
Entry under test: [2H]C([2H])([2H])N1C(=O)c2cccc(OC(F)F)c2[C@H]2C[C@@H]1c1nc3ccc(C#CCCN4CC(F)(F)C4)cc3n12 . Its IC50 was < 0.1 µM

---

# Experimental target: TNF-α (Homo sapiens, UniProt P01375)
# Construct: purchased R&D 210-TA-020/CF
# Test protocol: TNF-α Induced HEK Blue Cellular Assay (secreted alkaline phosphatase expression, QUANTI-Blue)
# Type: cell-based
# Settings: HEK Blue TNFα reporter cells; TNF-α 100 μg/ml; 24 hrs at 37° C.; inhibition of secreted alkaline phosphatase; read-out: IC50 value
pIC50: −log10 of the molar value.
Recorded measurements of pIC50, one per entry

- Compound: "CN1C(=O)c2cccc(OC(F)F)c2[C@H]2C[C@@H]1c1nc3ccc(C#Cc4cncn4C)cc3n12 [Example 9]"
  Result: "> 7.00"
- Compound: "[2H]C([2H])([2H])N1C(=O)c2cccc(OC(F)F)c2[C@H]2C[C@@H]1c1nc3ccc(C#CC4(C)CN(C(=O)C(C)(C)C)C4)cc3n12 [Example 167]"
  Result: "> 7.00"
- Compound: "[2H]C([2H])([2H])N1C(=O)c2cccc(OC(F)F)c2[C@H]2C[C@@H]1c1nc3ccc(C#CCCN4CCCC4)cc3n12 [Example 136]"
  Result: "> 7.00"
- Compound: "[2H]C([2H])([2H])N1C(=O)c2cccc(OC(F)F)c2[C@H]2C[C@@H]1c1nc3ccc(C#Cc4cnn(C)c4)cc3n12 [Example 8]"
  Result: "> 7.00"
- Compound: "[2H]C([2H])([2H])N1C(=O)c2cccc(OC(F)F)c2[C@H]2C[C@@H]1c1nc3ccc(C#CCCN4CCOCC4)cc3n12 [Example 101]"
  Result: "> 7.00"
- Compound: "[2H]C([2H])([2H])N1C(=O)c2cccc(OC(F)F)c2[C@H]2C[C@@H]1c1nc3ccc(C#CCCOC(F)F)cc3n12 [Example 103]"
  Result: "> 7.00"
- Compound: "[2H]C([2H])([2H])N1C(=O)c2cccc(OC(F)F)c2[C@H]2C[C@@H]1c1nc3ccc(C#C[C@H]4C[C@H](NC)C4)cc3n12 [Example 254]"
  Result: "> 7.00"
- Compound: "[2H]C([2H])([2H])N1C(=O)c2cccc(OC(F)F)c2[C@H]2C[C@@H]1c1nc3ccc(C#CC(F)F)cc3n12 [Example 247]"
  Result: "> 7.00"

pIC50 reported for this compound [2H]C([2H])([2H])N1C(=O)c2cccc(OC(F)F)c2[C@H]2C[C@@H]1c1nc3ccc(C#CC4CC4)c(F)c3n12 [Example 168] : 6.00 to 7.00

Briefly, pIC50 measured for [2H]C([2H])([2H])N1C(=O)c2cccc(OC(F)F)c2[C@H]2C[C@@H]1c1nc3ccc(C#CC4CN(C5COC5)C4C)cc3n12 (single isomer, unassigned) [Example 258] : > 7.00

Just so you know, measured pIC50 for [2H]C([2H])([2H])N1C(=O)c2cccc(OC(F)F)c2[C@H]2C[C@@H]1c1nc3ccc(C#CC)cc3n12 [Example 39] came out at > 7.00

Record [2H]C([2H])([2H])N1C(=O)c2cccc(OC(F)F)c2[C@H]2C[C@@H]1c1nc3ccc(C#CCOC(C)(C)C)cc3n12 [Example 56] . Reported pIC50: > 7.00

Please fill in: pIC50 reported for [2H]C([2H])([2H])N1C(=O)c2cccc(OC(F)F)c2[C@H]2C[C@@H]1c1nc3ccc(C#CCCCN4CCN(C)CC4)cc3n12 [Example 133] = 6.00 to 7.00

---

# Experimental target: TNF-α (Homo sapiens, UniProt P01375)
# Construct: purchased R&D 210-TA-020/CF
# Test protocol: TNF-α Induced HEK Blue Cellular Assay (secreted alkaline phosphatase expression, QUANTI-Blue)
# Format: cell-based
# Settings: HEK Blue TNFα reporter cells; TNF-α 100 μg/ml; 24 hrs at 37° C.; inhibition of secreted alkaline phosphatase; read-out: IC50 value
pIC50: −log10 of the molar value.
Observation type: pIC50

- Compound: "[2H]C([2H])([2H])N1C(=O)c2cccc(OC(F)F)c2[C@H]2C[C@@H]1c1nc3ccc(C#CCCN4CC(C)(O)C4)cc3n12"
  pIC50: "> 7.00"
- Compound: "[2H]C([2H])([2H])N1C(=O)c2cccc(OC(F)F)c2[C@H]2C[C@@H]1c1nc3ccc(C#CC4(C)CCN(C(=O)C5CC5)CC4)cc3n12"
  pIC50: "4.52 to 5.00"
- Compound: "[2H]C([2H])([2H])N1C(=O)c2cccc(OC(F)F)c2[C@H]2C[C@@H]1c1nc3ccc(C#CCN4CC[C@@H](F)C4)cc3n12"
  pIC50: "> 7.00"
- Compound: "[2H]C([2H])([2H])N1C(=O)c2cccc(OC(F)F)c2[C@H]2C[C@@H]1c1nc3ccc(C#C[C@H](C)O)cc3n12"
  pIC50: "6.00 to 7.00"
- Compound: "[2H]C([2H])([2H])N1C(=O)c2cccc(OC(F)F)c2[C@H]2C[C@@H]1c1nc3ccc(C#C[C@H]4CCCN4)cc3n12"
  pIC50: "4.52 to 5.00"

Reported pIC50 for [2H]C([2H])([2H])N1C(=O)c2cccc(OC(F)F)c2[C@H]2C[C@@H]1c1nc3ccc(C#C[C@@H]4CCCN4)cc3n12 was 4.52 to 5.00

// [2H]C([2H])([2H])N1C(=O)c2cccc(OC(F)F)c2[C@H]2C[C@@H]1c1nc3ccc(C#CC4CCN(C(=O)C(C)(C)O)C4)cc3n12 (stereo partly drawn) : pIC50 value = 6.00 to 7.00

// field: pIC50; key: [2H]C([2H])([2H])N1C(=O)c2cccc(OC(F)F)c2[C@H]2C[C@@H]1c1nc3ccc(C#Cc4nnc(CNC)s4)cc3n12 ; value = 6.00 to 7.00

Summary for this compound, [2H]C([2H])([2H])N1C(=O)c2cccc(OC(F)F)c2[C@H]2C[C@@H]1c1nc3ccc(C#CCOCC(C)O)cc3n12 (stereo partly drawn) : pIC50 is > 7.00

[2H]C([2H])([2H])N1C(=O)c2cccc(OC(F)F)c2[C@H]2C[C@@H]1c1nc3ccc(C#CC4CCCN(C5CC5)C4)cc3n12 (stereo partly drawn) yielded pIC50 of 4.52 to 5.00

Value of pIC50 reported for the compound [2H]C([2H])([2H])N1C(=O)c2cccc(OC(F)F)c2[C@H]2C[C@@H]1c1nc3ccc(C#CC4CN(S(C)(=O)=O)C4)cc3n12 is > 7.00
